compounds and their reported TGI
- Tested on: MDA-MB-231 breast
- protocol_summary: NCI tumour cell line growth inhibition, 48 h

INSERT INTO measurements (compound, endpoint_value) VALUES
  ('COc1cc(C(=O)c2c(-c3ccccc3)oc3c(OC)cccc23)cc(OC)c1OC', '2 µM');

Give the measured TGI for O=S(=O)(c1ccc(NC2=NC(c3ccc(O)cc3)(c3ccccc3O)c3ccccc32)cc1)c1ccc(NC2=NC(c3ccc(O)cc3)(c3ccccc3O)c3ccccc32)cc1 (stereo not given) > 44.6 µM

Give the measured TGI for O=[N+]([O-])c1ccc2sc(C=Nc3cnccn3)cc2c1 > 100 µM

Give the measured TGI for CCCCOC(=O)C(NC(C(=O)OCCCC)c1cc(C(C)(C)C)c(O)c(C(C)(C)C)c1)c1cc(C(C)(C)C)c(O)c(C(C)(C)C)c1 (stereo not given) > 100 µM

Give the measured TGI for COc1cc2c(cc1OC)[C@H](C)N1CCc3cc(OC)c(OC)cc3[C@@H]1C2 > 100 µM

----------
- System: SNB-75 CNS
- protocol_summary: NCI tumour cell line growth inhibition, 48 h
compounds and their reported TGI

INSERT INTO assay_data (compound, quantity, endpoint_value) VALUES
  ('CCNCCCn1c2c(c3ccc(Cl)cc3c1=O)C(=O)c1cc(OC)cnc1-2', 'TGI', '1.64 µM'),
  ('CC1=C(c2cccc(O)c2)[C@H](c2ccc(OCCN3CC(CF)C3)cc2)Oc2ccc(O)cc21', 'TGI', '22.3 µM'),
  ('COc1cc2c[n+](C)c3c4cc(OC)c(OC(C)C)cc4ccc3c2cc1OC', 'TGI', '> 100 µM');

Give the measured TGI for C[N+](C)(C)c1ccc(C(N)C(=O)O)cc1 (stereo unspecified) > 100 µM

Give the measured TGI for CN(C(=O)C12C3C4C1C1C2C3C41C(N)=O)C(C)(C)C (stereo unspecified) > 100 µM

Give the measured TGI for O=C1C[C@@H](C(=O)OCc2ccccc2)NC(=O)C[C@@H](C(=O)OCc2ccccc2)NC(=O)C[C@@H](C(=O)OCc2ccccc2)N1 13.7 µM

Give the measured TGI for COP(=O)(OC)C(Cc1cn(C(C)=O)c2ccccc12)C(=O)O (stereo unspecified) > 100 µM

Give the measured TGI for COc1cc(C(=O)c2c(-c3ccccc3)oc3c(OC)cccc23)cc(OC)c1OC 0.552 µM

Give the measured TGI for N#CC1(C#N)NC(c2cccs2)C(C#N)(C#N)NC1c1cccs1 (stereo unspecified) > 100 µM

Give the measured TGI for COc1ccc(CC(N)c2ccc(OC)cc2)cc1 (stereo unspecified) > 100 µM

----------
- Test system: MCF7 breast
- protocol_summary: NCI tumour cell line growth inhibition, 48 h
compounds and their reported TGI

In the examples that follow, each entry is paired with its recorded TGI.
INSERT INTO measurements (compound, quantity, endpoint_value) VALUES
  ('O=C1OCC2=C1C(c1cccc(Cl)c1)c1cc3c(cc1N2CCO)OCCO3 (stereo not given)', 'TGI', '97.6 µM'),
  ('Cc1ccc(S(=O)(=O)c2c(COC(=O)c3cccc(C)c3)c(-c3ccccc3)nn2C)cc1', 'TGI', '> 100 µM'),
  ('O=C1c2cc3c(cc2[C@@H]2[C@H]1c1ccc([N+](=O)[O-])cc1C(=O)N2CCCBr)OCO3', 'TGI', '< 0.01 µM'),
  ('CCOP(=O)(/C=C\n1cc(C)c(=O)[nH]c1=O)OCC', 'TGI', '> 100 µM'),
  ('CCN(CC)N1C(=O)[N+](CC)(CC)N=C1[O-]', 'TGI', '> 100 µM');

Consider the compound O=S(=O)(c1ccc(NC2=NC(c3ccc(O)cc3)(c3ccccc3O)c3ccccc32)cc1)c1ccc(NC2=NC(c3ccc(O)cc3)(c3ccccc3O)c3ccccc32)cc1 (stereo not given) tested on MCF7 breast; state its TGI. > 100 µM

Consider the compound C=C[C@@H](C)[C@H](NS(=O)(=O)c1ccc(C)cc1)C(=O)OCC tested on MCF7 breast; state its TGI. 70.6 µM

Consider the compound CCCC(=O)NC(Nc1ccc(S(=O)(=O)Nc2cc(C)on2)cc1)(C(=O)OCC)C(F)(F)F (stereo not given) tested on MCF7 breast; state its TGI. > 100 µM

Consider the compound COC(=O)C1CCC(=S)N1C(=O)c1ccccc1 (stereo not given) tested on MCF7 breast; state its TGI. > 100 µM

----------
compounds and their reported TGI
- Tested on: SK-MEL-5 melanoma
- protocol_summary: NCI tumour cell line growth inhibition, 48 h
Respond numerically; units are µM and should not be typed.

INSERT INTO measurements (compound, endpoint_value) VALUES
  ('C[C@H](NC(=O)C(Cc1ccccc1)(Cc1ccc(O)cn1)NC(=O)c1ccccc1)c1ccccc1 (stereo not given in full)', 33.7);

Now for the compound whose TGI we want.
Give the measured TGI for CC(NC(=O)C(NC(=O)CNC(=O)OC(C)(C)C)C(C)C)C(=O)Oc1c(Cl)c(Cl)c(Cl)c(Cl)c1Cl (stereo not given) 33.9

----------
- System: A498 renal
- protocol_summary: NCI tumour cell line growth inhibition, 48 h
compounds and their reported TGI

Give the measured TGI for Cc1ccc2c(=O)cc(-c3ccc(Cl)s3)[nH]c2n1 > 100 µM

Give the measured TGI for CC(NC(=O)C(NC(=O)CNC(=O)OC(C)(C)C)C(C)C)C(=O)Oc1c(Cl)c(Cl)c(Cl)c(Cl)c1Cl (stereo not given) 45 µM

Give the measured TGI for CN1CCN(C(=O)C(C)(C)c2ccc(C(=O)Nc3cn4cc(-c5ccncc5)ccc4n3)cc2)CC1 0.418 µM

Give the measured TGI for CCOc1cc2c(C(=O)CC)c(O)ccc2o1 > 94.4 µM

Give the measured TGI for Cc1[nH]c2ccccc2c1CCCO > 100 µM

Give the measured TGI for Cc1ccc(S(=O)(=O)c2c(COC(=O)c3cccc(C)c3)c(-c3ccccc3)nn2C)cc1 > 100 µM

Give the measured TGI for C[C@@]12CCC(=O)c3coc(c31)C(=O)c1cc3c(cc12)C(=O)C=CC3=O > 100 µM

Give the measured TGI for Cc1cc(S(=O)(=O)N/C(=C(\C#N)C(=O)c2ccc(Cl)cc2)[n+]2ccc(N(C)C)cc2)c([S-])cc1Cl 56.6 µM

Give the measured TGI for COP(=O)(OC)C(Cc1cn(C(C)=O)c2ccccc12)C(=O)O (stereo not given) > 100 µM

Give the measured TGI for Cc1ccc(OCC2OC(n3cnc4c(Cl)nc(N)nc43)CC2Oc2ccc(C)cc2)cc1 (stereo not given) > 100 µM

----------
- System: SNB-75 CNS
- protocol_summary: NCI tumour cell line growth inhibition, 48 h
quantity: TGI

INSERT INTO results (compound, experimental_target, endpoint_value) VALUES
  ('COC1CC(O[C@H]2CC[C@@]3(C)[C@H](CC[C@@H]4[C@@H]3CC[C@]3(C)[C@@H](C5=CC(=O)OC5)[C@@H](OC(C)=O)C[C@]43O)C2)OC(C)C1O (stereo not given in full)', 'SNB-75 CNS', '< 0.01 µM'),
  ('CO/N=C1\CC(NC(=O)CNC(=O)OC(C)(C)C)c2ccsc21 (stereo not given)', 'SNB-75 CNS', '> 100 µM'),
  ('Cc1ccc2c(c1)-c1c3c(nn1-c1ccccc1)-c1ccccc1SC3O2 (stereo not given)', 'SNB-75 CNS', '> 100 µM'),
  ('O=C1CCCCC1S(=O)(=O)c1ccccc1 (stereo not given)', 'SNB-75 CNS', '> 100 µM');

Consider the compound O=C1NNC2(C(=O)N1)c1ccccc1-c1ccccc12 tested on SNB-75 CNS; state its TGI. > 10 µM

Consider the compound O=C1NC(=O)C(C(CC(=O)c2ccc([N+](=O)[O-])cc2)c2ccccc2)C(=O)N1 (stereo not given) tested on SNB-75 CNS; state its TGI. > 100 µM

Consider the compound COc1ccc(/C=C/c2cc(OC)c(OC)c(OC)c2)cc1 tested on SNB-75 CNS; state its TGI. > 21.7 µM

----------
compounds and their reported TGI
- Tested on: SN12C renal
- protocol_summary: NCI tumour cell line growth inhibition, 48 h

In the examples that follow, each entry is paired with its recorded TGI.
INSERT INTO measurements (compound, experimental_target, endpoint_value) VALUES
  ('O=C1C[C@@H](C(=O)OCc2ccccc2)NC(=O)C[C@@H](C(=O)OCc2ccccc2)NC(=O)C[C@@H](C(=O)OCc2ccccc2)N1', 'SN12C renal', '> 100 µM'),
  ('O=c1cnn(C2OC(CO)C(O)C2O)c(=S)[nH]1 (stereo not given)', 'SN12C renal', '> 100 µM'),
  ('CCOC(=O)/C(C1=NCCN1)=C(\O)c1ccccc1', 'SN12C renal', '> 100 µM');

Give the measured TGI for CCCCCCCC/C=C\CCCCCCC/C=C1\C[C@](/C=C/C(=O)OC)(CO)OC1=O 4.01 µM

Give the measured TGI for C=C(C(N)=O)c1ccc([N+](=O)[O-])o1 22.4 µM

Give the measured TGI for CCCCCCCCCCCCCCCC(=O)OCC1OC(n2cc(F)c(=O)[nH]c2=O)C(N)C(O)C1O (stereo not given) 32.4 µM

Give the measured TGI for COc1cc2nc(N3CCCC3)nc(NCc3ccccc3)c2cc1OC 21.7 µM

Give the measured TGI for Cc1cc2c(cc1Cl)SC1=NN(C)C(C)N1S2(=O)=O (stereo not given) > 100 µM

Give the measured TGI for CSCCC(N)C(=O)NCCNc1ccc(NCCNC(=O)C(N)CCSC)c2c1C(=O)c1ccccc1C2=O (stereo not given) 2.55 µM

Give the measured TGI for C=C1CC2OC(=O)C(=C)C2C(O)C2C(=C)CCC12 (stereo not given) 18.1 µM
